Assay: qHTS assay for identifying genotoxic compounds that show differential cytotoxicity against isogenic chicken DT40 cell lines with known DNA damage response pathways - Rev3 mutant cell line (AID 743014); note: nearly all actives have a fitted effect of over 55% in size
Settings: chicken DT40 Rev3-/- viability, CellTiter-Glo, 40 h; series mostly up to 68.4 µM
From the text: National Center for Advancing Translational Sciences [NCATS] NIH Chemical Genomics Center [NCGC] U.S. Environmental Protection Agency [EPA] National Institutes of Environmental Health Sciences [NIEHS] National Toxicology Program [NTP] U.S. Food and Drug Administration [FDA] DNA repair pathways play a critical role in cellular homeostasis by repairing DNA damage induced by endogenous processes and xenobiotics. […]
Results filed as inconclusive are left out. Active and inactive are the calls of the source. Calls come from the whole dose curve; as a rule, active = well fitted cell-killing curve with a large enough effect in the repeat runs; inconclusive = weak or mixed curves, or effect the other way; inactive = no such curve, though single readings can be large or run the other way.
Output constraint: value belongs to active, inactive

Illustrative cases are given below, each with its answer.
| compound | assigned_label |
| --- | --- |
| CN=CNc1ccc(C)cc1C | inactive |
| N#CC(Br)(Br)C(N)=O | active |
| COP(=O)(O)OC | inactive |
| O=P(O)(O)c1ccccc1 | inactive |
| CC(=O)OCC1=C(C(=O)O)N2C(=O)[C@@H](N)[C@H]2SC1 | inactive |

Challenge: Which outcome did this test record for the compound C#CCOC(=O)/C=C(C)/C=C/CC(C)CCCC(C)C (stereo unspecified) ?
Response given: inactive

Challenge: Which outcome did this test record for the compound CCCCCCCCSC(=O)Oc1cc(Cl)nnc1-c1ccccc1 ?
Response given: active

Challenge: Which outcome did this test record for the compound C=C(Cl)CSC(=S)N(CC)CC ?
Response given: active

Challenge: Which outcome did this test record for the compound C=C(Cl)CCl ?
Response given: inactive

Challenge: Which outcome did this test record for the compound CCC1(CC)C(=O)C=CNC1=O ?
Response given: inactive

Challenge: Which outcome did this test record for the compound CN1C(=O)COc2c(C(=O)NC3CN4CCC3CC4)cc(Cl)cc21 (stereo unspecified) ?
Response given: inactive

Challenge: Which outcome did this test record for the compound NNC(N)=O ?
Response given: inactive

Challenge: Which outcome did this test record for the compound O=C1CCCCC1Cl (stereo unspecified) ?
Response given: inactive

Challenge: Which outcome did this test record for the compound ClCOCCl ?
Response given: inactive

Challenge: Which outcome did this test record for the compound CCOC(=O)c1ncn2c1CN(C)C(=O)c1c(I)cccc1-2 ?
Response given: inactive

Challenge: Which outcome did this test record for the compound N#CN ?
Response given: inactive

Challenge: Which outcome did this test record for the compound CN(C)CCN(C)C ?
Response given: inactive
